- Assay: Caspase-3/7 induction in CHO-K1 cells by small molecules, qHTS cell viability counter screen (AID 1346979); also: nearly all actives have a fitted effect of over 35% in size
- Setup conditions: CellTiter-Fluor fluorescence, 17 h; series mostly up to 92.4 µM
Inconclusive results are not listed. Calls of active or inactive are those of the source. Calls follow the shape of the dose curve; as a rule, active = well fitted cell-killing curve with a large enough effect in the repeat runs; inconclusive = weak or mixed curves, or effect the other way; inactive = no such curve, though single readings can be large or run the other way.
Response enum: yes (1) = active, no (0) = inactive

Worked cases, answers included:
Compound: NNC(=O)c1ccccc1
Class name: no (0)
--
Compound: CCCCCCCCCCCCCCCC[n+]1ccccc1
Class name: yes (1)
--
Compound: CC1(C)[C@H](C(=O)O[C@H](C#N)c2cccc(Oc3ccccc3)c2)[C@@H]1/C=C(\Cl)C(F)(F)F
Class name: no (0)
--
Compound: CCCCCCCCCBr
Class name: no (0)
--
Compound: O=C(NC(=O)c1c(F)cccc1F)Nc1cc(Cl)c(OC(F)(F)C(F)F)c(Cl)c1
Class name: no (0)

# fetch the recorded call for c1ccc2c(c1)OCC(C1=NCCN1)O2 (stereo not given) here
yes (1)

// param item: C=CCC1=C(C)C(OC(=O)C2C(C=C(C)C)C2(C)C)CC1=O (stereo not given) ; yields the recorded call
yes (1)

What did this assay record as the result for CC(C)N1C(=O)N(c2ccccc2)CSC1=NC(C)(C)C ?
yes (1)

Lab log entry: [Cl][Sn]([c]1ccccc1)([c]1ccccc1)[c]1ccccc1 — outcome as called in the assay?
yes (1)

Please state the recorded outcome for this compound: CCOC(=O)c1ccccc1S(=O)(=O)NC(=O)Nc1nc(Cl)cc(OC)n1
no (0)

// provenance: PubChem BioAssay (Tox21)
